- assay_system: Cytochrome P450 1A2 (Homo sapiens)
- Sequence (P05177 whole entry): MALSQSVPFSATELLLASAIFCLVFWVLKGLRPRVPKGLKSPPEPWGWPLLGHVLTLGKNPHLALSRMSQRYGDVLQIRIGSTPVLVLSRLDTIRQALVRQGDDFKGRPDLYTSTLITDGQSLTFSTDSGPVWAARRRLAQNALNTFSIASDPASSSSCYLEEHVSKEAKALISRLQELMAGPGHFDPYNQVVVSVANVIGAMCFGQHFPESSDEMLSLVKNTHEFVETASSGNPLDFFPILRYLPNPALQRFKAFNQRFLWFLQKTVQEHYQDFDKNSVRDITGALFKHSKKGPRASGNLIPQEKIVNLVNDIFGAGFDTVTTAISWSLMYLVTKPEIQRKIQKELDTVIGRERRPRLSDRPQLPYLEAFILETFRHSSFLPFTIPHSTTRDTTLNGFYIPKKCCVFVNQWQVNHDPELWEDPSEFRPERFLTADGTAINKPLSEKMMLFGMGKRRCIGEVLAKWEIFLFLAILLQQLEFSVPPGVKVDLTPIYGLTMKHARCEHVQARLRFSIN
For each of the compounds below, state its IC50.

Cc1ncoc1-c1nnc(SCCCN2[C@@H]3CC[C@H]2C[C@@H](c2ccc(C(C)(C)C)cc2)C3)n1C ... > 5 µM

Here's the next entry for you.
# input compound: Cc1ncoc1-c1nnc(SCCCN[C@@H]2CC[C@]3(c4ccc(C(F)(F)F)cc4)CC23)n1C (stereo in doubt; 24) ; wanted: its IC50 > 4 µM

###

- assay_system: D(3) dopamine receptor (Homo sapiens)
- Sequence (P35462 whole entry): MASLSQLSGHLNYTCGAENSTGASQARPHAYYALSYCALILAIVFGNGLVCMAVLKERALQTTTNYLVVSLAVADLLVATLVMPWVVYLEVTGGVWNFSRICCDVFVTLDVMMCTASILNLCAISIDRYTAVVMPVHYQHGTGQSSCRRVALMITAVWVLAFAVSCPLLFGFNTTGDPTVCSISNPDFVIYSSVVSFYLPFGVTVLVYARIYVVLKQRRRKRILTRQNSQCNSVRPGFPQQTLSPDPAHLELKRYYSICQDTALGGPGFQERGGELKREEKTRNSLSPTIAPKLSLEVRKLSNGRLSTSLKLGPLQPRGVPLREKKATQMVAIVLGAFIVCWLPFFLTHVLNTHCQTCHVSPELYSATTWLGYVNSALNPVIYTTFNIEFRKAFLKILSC
- protocol: Antagonist activity at human dopamine D3 expressed in CHO cells assessed as inhibition of quinelorane-induced [35S]GTPgammaS binding
Assignment: determine reported pKi for the given compounds.
Answers are plain numbers, as −log10 of the molar value.

Recorded results for 4 compounds are shown here.
Cc1ncoc1-c1nnc(SCCCN2[C@@H]3CC[C@H]2C[C@@H](c2ccc(C(C)(C)C)cc2)C3)n1C ... 9.20
Cc1ncoc1-c1nnc(SCCCN2CCC3(CCc4c(Br)cccc43)C2)n1C (stereo not given) ... 8.10
Cc1nc(C)c(-c2nnc(SCCCN3CCC4CC4(c4ccc(C(F)(F)F)cc4)CC3)n2C)s1 (stereo not given) ... 8.40
Cc1ncoc1-c1nnc(SCCCN2CCC3CC3(c3cccc(C(F)(F)F)c3)C2)n1C (stereo not given) ... 7.90

Now examine the next entry.
Need pKi of Cc1ncoc1-c1nnc(SCCCN2CCC3CC3(c3ccc(C(F)(F)F)cc3)CC2)n1C (stereo not given) , thanks. 8.40
